target: Luciferin 4-monooxygenase (Photinus pyralis) (UniProt P08659); experiment: FLuc inhibitory activity for the follow-up compounds in a biochemical assay with an in-house formulation of detection reagent; conditions: purified FLuc, luminescence; series mostly up to 25.6 µM
Sequence (P08659 whole entry, looked up): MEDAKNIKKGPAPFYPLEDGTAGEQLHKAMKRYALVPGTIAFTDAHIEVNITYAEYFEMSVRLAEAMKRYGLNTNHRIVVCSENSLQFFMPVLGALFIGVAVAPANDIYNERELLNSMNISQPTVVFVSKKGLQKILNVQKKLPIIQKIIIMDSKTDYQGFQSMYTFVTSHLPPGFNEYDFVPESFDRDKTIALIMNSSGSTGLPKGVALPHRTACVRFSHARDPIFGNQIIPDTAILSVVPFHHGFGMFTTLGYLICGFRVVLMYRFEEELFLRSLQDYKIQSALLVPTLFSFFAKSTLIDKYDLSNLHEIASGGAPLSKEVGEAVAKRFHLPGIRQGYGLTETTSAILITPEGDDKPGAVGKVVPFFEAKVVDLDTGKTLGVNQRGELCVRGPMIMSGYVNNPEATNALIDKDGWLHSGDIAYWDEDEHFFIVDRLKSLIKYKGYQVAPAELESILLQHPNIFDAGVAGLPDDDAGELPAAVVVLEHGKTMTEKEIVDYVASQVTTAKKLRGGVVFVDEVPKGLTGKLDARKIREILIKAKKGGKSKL
Results filed as inconclusive are left out. Activity calls are given as the source filed them. Calls come from the whole dose curve; as a rule, active = well fitted inhibition curve with a large enough effect; inconclusive = small, poorly fitted or top-dose-only effect; inactive = no such curve, though single readings can be large or run the other way.
REPORTED METRIC: Potency

O=C(O)c1ccc(NC(=O)c2ccccc2NC(=O)c2ccccc2Br)cc1
inactive
Cc1ccc(C(=O)O/N=C(\N)c2ccccn2)cc1
0.0619 µM (active)
COc1ccc(C(=O)Nc2cccc(C(=O)O)c2)cc1S(=O)(=O)N1CCCC1
inactive
O=C(Nc1ccccc1C(=O)O)c1cccc(S(=O)(=O)N2CCCC2)c1
inactive
COc1cc(OC)cc(-c2nc3ccccc3s2)c1
inactive

GET /value?item= `CN(C)S(=O)(=O)c1ccc(C(=O)Nc2cccc(C(=O)O)c2)cc1` &field=Potency returns inactive

Item: O=C(O)c1cccc(NC(=O)c2cccc(NC(=O)C3CCCO3)c2)c1 (stereo not drawn) | Potency: inactive

Value of Potency reported for the compound `O=C(Nc1ccccc1C(=O)O)c1ccccc1` is inactive

---

molecular target: Luciferin 4-monooxygenase (Photinus pyralis) (UniProt P08659); assay: FLuc inhibitory activity for the follow-up compounds in a biochemical assay with an in-house formulation of detection reagent; conditions: purified FLuc, luminescence; series mostly up to 25.6 µM
Records with an inconclusive call do not appear. The source made the active and inactive calls. Calls follow the shape of the dose curve; as a rule, active = well fitted inhibition curve with a large enough effect; inconclusive = small, poorly fitted or top-dose-only effect; inactive = no such curve, though single readings can be large or run the other way.
Please answer using one outcome listed in yes for active, no for inactive

The following molecules have reported results that may help.
O=C(O)c1ccc(NC(=O)c2ccccc2NC(=O)c2ccccc2Cl)cc1
no
O=C(Nc1ccccc1C(=O)O)c1cccc(S(=O)(=O)Nc2ccc(Br)cc2)c1
no
O=C(Nc1ccccc1C(=O)O)c1cccc(NC(=O)c2ccccc2Cl)c1
no

(Q) Give the logged outcome of this assay for the following molecule: COc1ccc2nc(NC(=O)c3ccc(S(=O)(=O)N4CCCC(C)C4)cc3)sc2c1 (stereo not given)
(A) no

(Q) Status in this test for `Cc1ccc(C(=O)Nc2ccc(C(=O)O)cc2)cc1S(=O)(=O)Nc1ccccc1` ?
(A) no

(Q) Given `c1ccc2sc(-c3ccc4c(c3)OCO4)nc2c1` , state the outcome it received in this test.
(A) yes

(Q) Dear colleague, could you share the recorded outcome for `O=C(Nc1ccccc1C(=O)O)c1cc(S(=O)(=O)NCc2ccccc2)ccc1Cl` when you have a moment?
(A) no

(Q) For `COc1ccc2nc(NC(=O)c3cccc(S(=O)(=O)N4CCOCC4)c3)sc2c1` , which call appears in the assay record?
(A) no

(Q) Fill in: this test's call for `COc1ccc(-c2nc3ccccc3s2)cc1O` is ___
(A) yes

---

target: Luciferin 4-monooxygenase (Photinus pyralis); assay: FLuc inhibitory activity for the follow-up compounds in a biochemical assay with an in-house formulation of detection reagent; details: purified FLuc, luminescence; series mostly up to 25.6 µM
Inconclusive results are not listed. Calls of active or inactive are those of the source. Calls follow the shape of the dose curve; as a rule, active = well fitted inhibition curve with a large enough effect; inconclusive = small, poorly fitted or top-dose-only effect; inactive = no such curve, though single readings can be large or run the other way.
The categories you may choose from are active, inactive

(Q) Entry `CCOc1ccc2nc(NC(=O)c3ccoc3C)sc2c1` : call = ?
(A) active

(Q) Assay outcome for `Nc1ccc2nc(-c3ccccc3)sc2c1` : what was it?
(A) active

(Q) Would you mind telling me which call this test gave `C/C(=N\NC(=O)c1ccccc1NC(=O)c1ccc(Cl)cc1)c1ccncc1` ?
(A) active

(Q) Test call, this compound: `COc1cc(C(=O)Nc2cc(C)c(O)c(-c3nc4ccccc4s3)c2)cc(OC)c1OC`
(A) inactive

(Q) In this assay, the call recorded for `Oc1ccc(-c2nc3ccccc3s2)c(O)c1` was what?
(A) inactive

(Q) GET /call?item= `CC(=O)Nc1cccc(-c2nc3ccccc3s2)c1C` returns the recorded outcome of this test.
(A) inactive
